B1: Caulobacter ParB omega fusion; a variant is named by its letters at X, in order, B8GW30 (parent)
chain: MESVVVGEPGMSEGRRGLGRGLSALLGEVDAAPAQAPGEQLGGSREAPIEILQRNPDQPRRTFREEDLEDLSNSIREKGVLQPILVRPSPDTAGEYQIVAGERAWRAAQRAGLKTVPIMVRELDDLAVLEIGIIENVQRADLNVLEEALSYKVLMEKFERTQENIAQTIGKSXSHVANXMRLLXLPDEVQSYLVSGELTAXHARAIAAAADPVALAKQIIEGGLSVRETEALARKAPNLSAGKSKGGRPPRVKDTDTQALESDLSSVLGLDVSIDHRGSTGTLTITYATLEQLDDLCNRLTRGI

Variants of: B1
Test: one-hybrid fitness for binding NBS DNA (the Noc-binding site; scaled: cognate 1, non-cognate 0); higher = stronger binding
Details: with NBS DNA site
Over roughly 81,000 sequences, “one-hybrid fitness for binding NBS DNA” has its median near -0.1; the highest 2% begin near 0.36. The entries come from a sample that favours the highest values as a whole.
Catalogue of one-hybrid fitness for binding NBS DNA readings, one per entry.

>  <mutant code>
DYQG

>  <one-hybrid fitness for binding NBS DNA>
≤ 0.2

$$$$
>  <mutant code>
RSAS

>  <one-hybrid fitness for binding NBS DNA>
0.424

$$$$
>  <mutant code>
RRWT

>  <one-hybrid fitness for binding NBS DNA>
0.824

$$$$
>  <mutant code>
QMTD

>  <one-hybrid fitness for binding NBS DNA>
≤ 0.2

$$$$
>  <mutant code>
GKLD

>  <one-hybrid fitness for binding NBS DNA>
≤ 0.2

$$$$
>  <mutant code>
WSWT

>  <one-hybrid fitness for binding NBS DNA>
≤ 0.2

$$$$
>  <mutant code>
QLTN

>  <one-hybrid fitness for binding NBS DNA>
≤ 0.2

$$$$
>  <mutant code>
GSCC

>  <one-hybrid fitness for binding NBS DNA>
≤ 0.2

$$$$
>  <mutant code>
QKHD

>  <one-hybrid fitness for binding NBS DNA>
≤ 0.2

$$$$
>  <mutant code>
QRTS

>  <one-hybrid fitness for binding NBS DNA>
0.685

$$$$
>  <mutant code>
RYHG

>  <one-hybrid fitness for binding NBS DNA>
≤ 0.2

$$$$
>  <mutant code>
GAPL

>  <one-hybrid fitness for binding NBS DNA>
≤ 0.2

$$$$
>  <mutant code>
MIPG

>  <one-hybrid fitness for binding NBS DNA>
≤ 0.2

$$$$
>  <mutant code>
QSTM

>  <one-hybrid fitness for binding NBS DNA>
≤ 0.2

$$$$
>  <mutant code>
NRTR

>  <one-hybrid fitness for binding NBS DNA>
≤ 0.2

$$$$
>  <mutant code>
IRDT

>  <one-hybrid fitness for binding NBS DNA>
≤ 0.2

$$$$
>  <mutant code>
NYAI

>  <one-hybrid fitness for binding NBS DNA>
≤ 0.2

$$$$
>  <mutant code>
YHKT

>  <one-hybrid fitness for binding NBS DNA>
≤ 0.2

$$$$
>  <mutant code>
GKLH

>  <one-hybrid fitness for binding NBS DNA>
0.366

$$$$
>  <mutant code>
IRKT

>  <one-hybrid fitness for binding NBS DNA>
0.471

$$$$
>  <mutant code>
PFLT

>  <one-hybrid fitness for binding NBS DNA>
≤ 0.2

$$$$
>  <mutant code>
IRKD

>  <one-hybrid fitness for binding NBS DNA>
≤ 0.2

$$$$
>  <mutant code>
QSTS

>  <one-hybrid fitness for binding NBS DNA>
0.364

$$$$
>  <mutant code>
RRGT

>  <one-hybrid fitness for binding NBS DNA>
0.732

$$$$
>  <mutant code>
GHKE

>  <one-hybrid fitness for binding NBS DNA>
≤ 0.2

$$$$
>  <mutant code>
RRET

>  <one-hybrid fitness for binding NBS DNA>
0.698

$$$$
>  <mutant code>
VNAV

>  <one-hybrid fitness for binding NBS DNA>
≤ 0.2

$$$$
>  <mutant code>
RRVS

>  <one-hybrid fitness for binding NBS DNA>
0.605

$$$$
>  <mutant code>
ISNT

>  <one-hybrid fitness for binding NBS DNA>
≤ 0.2

$$$$
>  <mutant code>
QKAP

>  <one-hybrid fitness for binding NBS DNA>
≤ 0.2

$$$$
>  <mutant code>
RRYM

>  <one-hybrid fitness for binding NBS DNA>
0.296

$$$$
>  <mutant code>
VMPY

>  <one-hybrid fitness for binding NBS DNA>
≤ 0.2

$$$$
>  <mutant code>
PPII

>  <one-hybrid fitness for binding NBS DNA>
≤ 0.2

$$$$
>  <mutant code>
QRTM

>  <one-hybrid fitness for binding NBS DNA>
0.414

$$$$
>  <mutant code>
TARF

>  <one-hybrid fitness for binding NBS DNA>
≤ 0.2

$$$$
>  <mutant code>
HDDG

>  <one-hybrid fitness for binding NBS DNA>
≤ 0.2

$$$$
>  <mutant code>
RYGT

>  <one-hybrid fitness for binding NBS DNA>
0.373

$$$$
>  <mutant code>
QRTQ

>  <one-hybrid fitness for binding NBS DNA>
0.437

$$$$
>  <mutant code>
RYGD

>  <one-hybrid fitness for binding NBS DNA>
≤ 0.2

$$$$
>  <mutant code>
RTAD

>  <one-hybrid fitness for binding NBS DNA>
≤ 0.2

$$$$
>  <mutant code>
QKCS

>  <one-hybrid fitness for binding NBS DNA>
0.419

$$$$
>  <mutant code>
QCTV

>  <one-hybrid fitness for binding NBS DNA>
≤ 0.2

$$$$
>  <mutant code>
RYQY

>  <one-hybrid fitness for binding NBS DNA>
≤ 0.2

$$$$
>  <mutant code>
RYQT

>  <one-hybrid fitness for binding NBS DNA>
0.381

$$$$
>  <mutant code>
QLTR

>  <one-hybrid fitness for binding NBS DNA>
0.487

$$$$
>  <mutant code>
YTFW

>  <one-hybrid fitness for binding NBS DNA>
≤ 0.2

$$$$
>  <mutant code>
QPTS

>  <one-hybrid fitness for binding NBS DNA>
≤ 0.2

$$$$
>  <mutant code>
QHTN

>  <one-hybrid fitness for binding NBS DNA>
≤ 0.2

$$$$
>  <mutant code>
ITVP

>  <one-hybrid fitness for binding NBS DNA>
≤ 0.2

$$$$
>  <mutant code>
RRDG

>  <one-hybrid fitness for binding NBS DNA>
≤ 0.2

$$$$
>  <mutant code>
TFCI

>  <one-hybrid fitness for binding NBS DNA>
≤ 0.2

$$$$
>  <mutant code>
QKTD

>  <one-hybrid fitness for binding NBS DNA>
≤ 0.2

$$$$
>  <mutant code>
RRRG

>  <one-hybrid fitness for binding NBS DNA>
0.497

$$$$

Provenance of the data: a collection of fitness landscapes (doi:10.1016/j.celrep.2020.107928)
